target: HIV-1 YU-2 gp120 (HIV-1 (YU-2), UniProt P35961); test: SPR
RESULT_TYPE: pIC50
Friendly reminder that pIC50 comes from taking -log10 of the concentration in mol/L.

Fab m18 Y33A (HCDR1) (Fab, V domains shown) VH: VQLLESGPGVVKPSETLSLTCTVSGASVNNYAWTWVRQPPGKGLEWIGNVYDSGDTNYNPSLSSRLSLSMDTSKNQFSLRLSSVTAADTATYYCARYHRHFIRGPLSFDYWGRGTLVTVSS VL: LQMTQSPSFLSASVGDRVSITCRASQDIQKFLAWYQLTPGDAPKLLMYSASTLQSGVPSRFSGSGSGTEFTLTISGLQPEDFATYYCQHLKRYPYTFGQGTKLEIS :: 6.87

Alright, here's another binder for you.
## Task Complete the entry with pIC50 for Fab m18 Q27A (LCDR1) (Fab, V domains shown) VH: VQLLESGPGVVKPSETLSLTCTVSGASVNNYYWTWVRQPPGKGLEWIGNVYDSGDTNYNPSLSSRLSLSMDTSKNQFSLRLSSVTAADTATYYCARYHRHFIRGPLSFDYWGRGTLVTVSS VL: LQMTQSPSFLSASVGDRVSITCRASADIQKFLAWYQLTPGDAPKLLMYSASTLQSGVPSRFSGSGSGTEFTLTISGLQPEDFATYYCQHLKRYPYTFGQGTKLEIS
## Result 7.30
